Data credit: patent US20260242735A1

# Assay system: human CD33 S131K (human, UniProt P20138 18-364)
# Sequence (P20138 18-364 S131K limits assumed): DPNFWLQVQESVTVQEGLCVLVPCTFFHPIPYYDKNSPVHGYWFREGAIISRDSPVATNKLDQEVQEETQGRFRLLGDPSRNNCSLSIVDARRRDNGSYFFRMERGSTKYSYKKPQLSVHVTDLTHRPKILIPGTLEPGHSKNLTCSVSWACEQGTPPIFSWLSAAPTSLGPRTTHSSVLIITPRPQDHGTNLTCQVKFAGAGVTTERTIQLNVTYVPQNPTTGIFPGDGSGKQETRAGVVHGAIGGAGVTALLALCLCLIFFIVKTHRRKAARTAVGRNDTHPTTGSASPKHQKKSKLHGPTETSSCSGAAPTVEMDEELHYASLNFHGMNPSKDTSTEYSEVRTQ
# Assay summary: flow cytometry, HEK293-T, IgG;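 also: CD33 point mutants transiently expressed, antibody binding measured by fluorescence in duplicate, background subtracted and scaled to binding on wild-type CD33 as 100%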
Can you tell me Mean % WT Binding for the items I'm about to list?
// return numeric value only (unit: % WT binding, not printed)

Value of measured Mean % WT Binding for the entry Refmab #1 (antibody, human IgG1, V domains shown, tested in IgG format; also called hP67.6) VH: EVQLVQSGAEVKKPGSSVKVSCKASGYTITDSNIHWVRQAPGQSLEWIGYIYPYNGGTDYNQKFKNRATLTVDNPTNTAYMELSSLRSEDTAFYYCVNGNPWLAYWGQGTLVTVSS VL: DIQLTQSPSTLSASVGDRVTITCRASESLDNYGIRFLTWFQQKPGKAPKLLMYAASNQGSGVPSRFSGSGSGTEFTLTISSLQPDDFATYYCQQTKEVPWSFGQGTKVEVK : 102

Value of measured Mean % WT Binding for the entry Refmab #3 (antibody, human IgG1, V domains shown, tested in IgG format) VH: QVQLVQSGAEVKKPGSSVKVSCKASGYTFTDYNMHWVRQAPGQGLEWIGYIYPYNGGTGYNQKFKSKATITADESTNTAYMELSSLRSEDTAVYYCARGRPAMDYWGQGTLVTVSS VL: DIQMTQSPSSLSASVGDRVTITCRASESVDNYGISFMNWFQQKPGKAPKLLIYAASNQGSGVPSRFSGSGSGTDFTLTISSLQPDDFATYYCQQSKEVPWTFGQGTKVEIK : 87.7

Value of measured Mean % WT Binding for the entry Refmab #4 (antibody, human IgG1, V domains shown, tested in IgG format) VH: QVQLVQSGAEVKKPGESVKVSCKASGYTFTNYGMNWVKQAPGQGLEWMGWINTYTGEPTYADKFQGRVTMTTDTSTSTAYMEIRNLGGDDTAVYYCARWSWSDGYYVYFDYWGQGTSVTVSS VL: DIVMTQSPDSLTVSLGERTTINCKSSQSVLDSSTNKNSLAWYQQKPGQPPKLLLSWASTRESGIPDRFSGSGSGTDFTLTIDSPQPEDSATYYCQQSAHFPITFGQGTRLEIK : 100

Value of measured Mean % WT Binding for the entry Refmab #2 (antibody, human IgG1, V domains shown, tested in IgG format) VH: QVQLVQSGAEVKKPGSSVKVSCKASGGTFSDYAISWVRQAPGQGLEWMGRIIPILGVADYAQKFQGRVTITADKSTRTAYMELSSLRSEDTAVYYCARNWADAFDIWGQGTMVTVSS VL: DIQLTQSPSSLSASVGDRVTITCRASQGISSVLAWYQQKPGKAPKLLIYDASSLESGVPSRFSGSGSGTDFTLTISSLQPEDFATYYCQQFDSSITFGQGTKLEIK : 91.2
